targetOrSystem: 5-HT2BR (Homo sapiens)
Construct: expressed in transfected cells; host or cells: Flp-In 293 T-Rex (tetracycline inducible)
Sequence (P41595 whole entry): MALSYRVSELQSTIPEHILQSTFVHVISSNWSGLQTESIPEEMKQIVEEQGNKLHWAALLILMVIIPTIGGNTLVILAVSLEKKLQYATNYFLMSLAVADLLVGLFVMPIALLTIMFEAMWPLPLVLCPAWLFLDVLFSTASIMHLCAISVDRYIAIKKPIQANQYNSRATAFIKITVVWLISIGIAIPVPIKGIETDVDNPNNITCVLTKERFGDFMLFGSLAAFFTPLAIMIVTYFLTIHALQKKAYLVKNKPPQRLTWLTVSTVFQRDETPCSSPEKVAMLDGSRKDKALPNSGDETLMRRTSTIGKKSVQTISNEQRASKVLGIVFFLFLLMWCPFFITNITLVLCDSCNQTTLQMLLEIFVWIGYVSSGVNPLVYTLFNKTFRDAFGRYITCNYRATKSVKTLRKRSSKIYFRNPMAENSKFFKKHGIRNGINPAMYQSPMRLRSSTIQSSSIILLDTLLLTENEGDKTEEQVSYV
experimentNotes: 5-HT2BR binding affinity (Ki), Table 8
conditionInfo: read-out: 5-HT2BR Ki
Exam item: assign criterion met to entries whose Ki is below 700 nM and criterion not met to entries at or above 700 nM. Note that a value of exactly 700 nM receives criterion not met.

Example entries and their recorded answers appear below.
C[C@@H]1C=C(c2c[nH]c3ncccc23)CN(Cc2cnco2)C1 [compound 47]    criterion not met
Cc1cncc(C2=CC(C)CN(CC3(O)COC3)C2)c1 (racemic) [Compound 4]    criterion met
CCCCN1CC(c2c[nH]c3ncccc23)=C[C@@H](C)C1 [Compound 21]    criterion not met
CCCCN1CC(c2cncc(C)c2)=C[C@@H](C)C1 [Compound 13]    criterion met
C[C@H]1C=C(c2c[nH]c3ncccc23)CN(C)C1 [compound 34]    criterion met

Just wondering, is Ki of CCCN1CC(c2c[nH]c3ncccc23)=C[C@H](C)C1 [Compound 24] below 700 nM?
criterion not met

Just wondering, is Ki of C[C@H]1C=C(c2c[nH]c3ncccc23)CNC1 [compound 39] below 700 nM?
criterion not met

Just wondering, is Ki of C[C@H]1C=C(c2c[nH]c3ncccc23)CN(C2COC2)C1 [compound 28] below 700 nM?
criterion not met

Just wondering, is Ki of C[C@@H]1C=C(c2cncc(Cl)c2)CN(CCC2CCCC2)C1 [Compound 19] below 700 nM?
criterion met

Just wondering, is Ki of C[C@H]1C=C(c2c[nH]c3ncccc23)CN(C2CC2)C1 [compound 30] below 700 nM?
criterion not met

Just wondering, is Ki of C[C@@H]1C=C(c2c[nH]c3ncccc23)CN(C2COC2)C1 [compound 27] below 700 nM?
criterion not met

Just wondering, is Ki of C[C@@H]1C=C(c2c[nH]c3ncccc23)CN(C2CC2)C1 [compound 29] below 700 nM?
criterion not met

This collection of values is drawn from patent US20230365542A1.
